# STUDY SYSTEM: T1, Murine RANK-Fc (mouse, UniProt O35305 31-214)
# T1 sequence (looked up): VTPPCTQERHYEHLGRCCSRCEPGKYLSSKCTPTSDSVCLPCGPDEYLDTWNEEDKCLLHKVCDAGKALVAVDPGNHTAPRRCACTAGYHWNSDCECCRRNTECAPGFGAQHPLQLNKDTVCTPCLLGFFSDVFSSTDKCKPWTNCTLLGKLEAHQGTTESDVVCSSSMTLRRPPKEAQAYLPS
# TEST DESCRIPTION: SPR
OBSERVATION TYPE: pKd
Notebook: values listed as pKd are -log10 of the concentration (mol/L).

RANKL_Q236S (ligand, mouse, UniProt O35235 160-316, looked up) EAQPFAHLTINAASIPSGSHKVTLSSWYHDRGWAKISNMTLSNGKLRVNQDGFYYLYANICFRHHETSGSVPTDYLSLMVYVVKTSIKIPSSHNLMKGGSTKNWSGNSEFHFYSINVGGFFKLRAGEEISIQVSNPSLLDPDQDATYFGAFKVQDID ... 10.60

// pKd lookup, binder = RANKL_Q236D (ligand, mouse, UniProt O35235 160-316, looked up) EAQPFAHLTINAASIPSGSHKVTLSSWYHDRGWAKISNMTLSNGKLRVNQDGFYYLYANICFRHHETSGSVPTDYLDLMVYVVKTSIKIPSSHNLMKGGSTKNWSGNSEFHFYSINVGGFFKLRAGEEISIQVSNPSLLDPDQDATYFGAFKVQDID , result: 10.82

Cited source for all entries: paper PMC6852375
